Ref: the supplement of paper PMC10567573

Listed here: items and their measured protein stability index.
B1: KLHL20 (parent)
chain: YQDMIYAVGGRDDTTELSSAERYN

# Variants of: B1
# Assay text: protein stability index of a GFP-peptide fusion (GPS, HEK-293T) (PSI 1-6); higher = more stable;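 also: lentivirally expressed fusions sorted by FACS into six bins by GFP to DsRed ratio, PSI derived from sequencing read proportions per bin multiplied by bin number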
# Measurement setup: c terminus: a fixed tail appended
Please reply with the number alone, leaving off any unit.

# annotated cases, reported protein stability index shown
- Alteration: "G10T"
  protein stability index: 1.82
- Alteration: "L17D"
  protein stability index: 2.12
- Alteration: "D12K"
  protein stability index: 2.1
- Alteration: "E16T"
  protein stability index: 2.17
- Alteration: "L17A"
  protein stability index: 2.44

protein stability index reading for Q2Y : 3.17

The variant listed as G9W shows protein stability index equal to 1.92

G9R has a reported protein stability index of 2.36

Reported protein stability index for V8I was 1.97

Sure, the documented protein stability index for R22K is 2.08

Looking up T14Q , I found its protein stability index recorded as 2.35

Looking up Q2R , I found its protein stability index recorded as 3.6

Record M4N , field protein stability index: 3.12

Noted for Q2W : its protein stability index reads 2.87
